In this section, each of the compounds is paired with its reported IC50.
# TESTED ON: Fibroblast growth factor receptor 1 (Homo sapiens, UniProt P11362)
# Sequence (P11362 whole entry, the tested form may be a part): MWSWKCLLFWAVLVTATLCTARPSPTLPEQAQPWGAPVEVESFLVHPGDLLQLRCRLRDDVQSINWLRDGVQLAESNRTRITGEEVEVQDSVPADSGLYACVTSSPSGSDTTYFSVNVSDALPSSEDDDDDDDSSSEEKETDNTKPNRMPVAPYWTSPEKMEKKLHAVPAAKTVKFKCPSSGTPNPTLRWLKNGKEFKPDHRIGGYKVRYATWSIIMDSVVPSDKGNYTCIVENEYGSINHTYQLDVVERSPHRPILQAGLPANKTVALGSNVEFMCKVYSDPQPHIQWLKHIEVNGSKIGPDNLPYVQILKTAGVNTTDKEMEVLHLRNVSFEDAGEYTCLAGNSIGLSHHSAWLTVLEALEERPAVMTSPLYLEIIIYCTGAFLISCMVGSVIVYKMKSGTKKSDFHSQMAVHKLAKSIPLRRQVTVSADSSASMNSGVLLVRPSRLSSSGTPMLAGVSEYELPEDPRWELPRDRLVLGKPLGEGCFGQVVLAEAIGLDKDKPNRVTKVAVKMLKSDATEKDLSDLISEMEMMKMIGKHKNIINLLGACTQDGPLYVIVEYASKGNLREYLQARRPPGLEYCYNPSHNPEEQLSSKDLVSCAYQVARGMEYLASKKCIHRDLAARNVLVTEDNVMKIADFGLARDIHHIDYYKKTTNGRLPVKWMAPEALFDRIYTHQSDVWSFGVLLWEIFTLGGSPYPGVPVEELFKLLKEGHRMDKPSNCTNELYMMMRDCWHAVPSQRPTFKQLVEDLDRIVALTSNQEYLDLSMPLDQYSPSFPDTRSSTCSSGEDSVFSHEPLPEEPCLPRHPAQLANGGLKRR
# ASSAY INFO: Inhibition of N-terminal GST-tagged recombinant human FGFR1 (456 to 765 residues) expressed in baculovirus infected insect Sf21 cells after 25 mins using KKKSPGEYVNIEFG peptide substrate by scintillation counting analysis
PROPERTY: IC50

> print(dat)
                                   structure   result
 1  Cc1cccc(N2CC(=O)C(c3nc4ccccc4[nH]3)=C2N)c1  > 30 µM
 2  Cc1ccc(N2CC(=O)C(c3nc4ccccc4[nH]3)=C2N)cc1  > 30 µM
 3  COc1ccc(N2CC(=O)C(c3nc4ccccc4[nH]3)=C2N)c(OC)c1  > 30 µM
 4   NC1=C(c2nc3ccccc3[nH]2)C(=O)CN1c1ccccc1  > 30 µM
 5  NC1=C(c2nc3ccccc3[nH]2)C(=O)CN1c1ccc(F)cc1    27 µM
 6  NC1=C(c2nc3ccccc3[nH]2)C(=O)CN1c1cccc(O)c1  0.32 µM
 7  Cc1ccc2nc(C3=C(N)N(c4cccc(O)c4)CC3=O)[nH]c2c1  0.63 µM
 8  CCOc1ccccc1N1CC(=O)C(c2nc3ccccc3[nH]2)=C1N  > 30 µM
 9  NC1=C(c2nc3ccccc3[nH]2)C(=O)CN1c1ccccc1F  > 30 µM
10  NC1=C(c2nc3ccccc3[nH]2)C(=O)CN1c1ccccc1Cl  > 30 µM

All figures here come from ChEMBL document CHEMBL3779808.
